Test system: MCF7 breast
TEST NAME: NCI tumour cell line growth inhibition, 48 h
METRIC NAME: TGI

Reported TGI of CCO/C(O)=C(/C(=N)N1CCCC1)C(=O)Nc1cccc(C(F)(F)F)c1 : > 100 µM

Reported TGI of C#CCn1c(=O)c(C#N)c(O)c2cc3ccccc3nc21 : > 100 µM

Reported TGI of O=C(O)CSc1ncccc1[N+](=O)[O-] : > 100 µM

Reported TGI of CC(C)[C@H]1C(=O)N[C@@H](CCCN=C(N)N)C(=O)NCC(=O)N[C@@H](CC(=O)O)C(=O)N[C@H](Cc2ccccc2)C(=O)N1C : 3.32 µM

Reported TGI of CC(C)(C)OC[C@H](O)CC#N : > 100 µM

Reported TGI of C/C(=N\NC(N)=S)c1nc2ccc(Cl)cc2[nH]1 : > 50 µM

Reported TGI of COc1cc(/C=C2\CCC(C)C3=C2NC(=S)NC3c2cc(OC)c(OC)c(OC)c2)cc(OC)c1OC (stereo unspecified) : > 100 µM

Reported TGI of Cn1cc(CNCC2CCN(c3ncc(C(=O)NO)cn3)CC2)c2ccccc21 : 2.53 µM

Reported TGI of CSc1c(C#N)c2n(c3ccccc13)c1ccccc1[n+]2C : > 100 µM

Reported TGI of CCOc1cc(C2CC(c3ccc(NS(=O)(=O)c4cc([N+](=O)[O-])ccc4C)cc3)=NN2)ccc1O (stereo unspecified) : 49.6 µM

Reported TGI of COc1ccc(Cl)cc1Nc1nc(C(F)(F)F)ccc1C(=O)N/N=C/c1cc(OC)c(OC)c(OC)c1 : 7.46 µM

Reported TGI of O=C(CNc1ccc(Cl)cc1Cl)NC1C=Cc2ccc(S(=O)(=O)Nc3ccc(Cl)cc3Cl)cc2C1=O (stereo unspecified) : > 100 µM

Reported TGI of Cc1ccc(N=Nc2c(C)c(C#N)c(=S)n(C3OC(CO)C(O)C(O)C3O)c2-c2ccccc2)cc1 (stereo unspecified) : 34.7 µM

Reported TGI of Cc1c2c(OCCCCN3CCN(c4ncccn4)CC3)nn(C)c(=O)c2c(C)n1-c1ccccc1 : 31.4 µM

Reported TGI of CC1CCN(CC(=O)N2c3ccccc3Sc3cc4ccccc4cc32)CC1 : > 100 µM

Reported TGI of Cn1nc(S(N)(=O)=O)s/c1=N/C(N)=S : > 100 µM

Reported TGI of COc1cc(Cn2c(-c3nonc3N)nc3ccccc32)ccc1C : > 100 µM

Reported TGI of O=C1c2cccc3cccc(c23)C(=O)N1CCCNOCCONCCCN1C(=O)c2cccc3cccc(c23)C1=O : > 100 µM

Reported TGI of Cc1ccc(C(=O)/C(C#N)=C/Nc2c(C)n(C)n(-c3ccccc3)c2=O)cc1 : > 100 µM

Reported TGI of O=C1c2ccccc2-n2c1nc1ccccc1c2=O : 25.2 µM

Reported TGI of O=c1[nH]c(N/N=C\C(O)C(O)C(O)CO)nc2ccccc12 (stereo unspecified) : > 100 µM

* * *

System: LOX IMVI melanoma
TEST NAME: NCI tumour cell line growth inhibition, 48 h
METRIC NAME: TGI

Value (TGI, LOX IMVI melanoma) for record Cc1c(-c2ccccc2)c(C#N)c2nnc(C(N)=O)c(N)n12 = > 100 µM

Value (TGI, LOX IMVI melanoma) for record COC1CC(OC(=O)c2ccccc2)C(OC(=O)c2ccccc2)C(C)O1 (stereo unspecified) = > 100 µM

Value (TGI, LOX IMVI melanoma) for record COC(=O)C1(Cc2ccccc2)Cc2ccccc2C1 = 88 µM

Value (TGI, LOX IMVI melanoma) for record CC(=O)c1cc2c(s1)C(=O)c1ccccc1C2=O = 15 µM

Value (TGI, LOX IMVI melanoma) for record Cc1nn(-c2ccccc2)c(-c2ccccc2[N+](=O)[O-])c1CC#N = > 100 µM

Value (TGI, LOX IMVI melanoma) for record COc1cccc(-c2cc(=O)c3ccc(C)nc3[nH]2)c1 = > 100 µM

Value (TGI, LOX IMVI melanoma) for record OCC1OC(n2cnc3c(/C=C(/O)c4ccccc4)ncnc32)C(O)C1O (stereo unspecified) = > 100 µM

Value (TGI, LOX IMVI melanoma) for record NC(N)=NS(=O)(=O)c1ccc(NC(=O)c2ccc3nc4ccccc4c(Nc4ccc(S(N)(=O)=O)cc4)c3c2)cc1 = > 100 µM

Value (TGI, LOX IMVI melanoma) for record CC1(C)C2CCC3(C2)CS(=O)(=O)N2OC231 (stereo unspecified) = 31.1 µM

Value (TGI, LOX IMVI melanoma) for record C[C@]12CC[C@@H]3c4ccc(O)cc4C(O)C[C@H]3[C@@H]1CCC2=O (stereo partly specified) = > 100 µM

Value (TGI, LOX IMVI melanoma) for record CN(Cc1cnc2nc(N)nc(N)c2n1)c1ccc(C(=O)NC(CCC(=O)NC(P(=O)(O)O)P(=O)(O)O)C(=O)O)cc1 (stereo unspecified) = > 100 µM

Value (TGI, LOX IMVI melanoma) for record CN(C)CCCOCCn1c2c(c3ccccc31)CCCC2 = 31.5 µM

Value (TGI, LOX IMVI melanoma) for record O=C1CCC(O)=C1O = > 100 µM

Value (TGI, LOX IMVI melanoma) for record COc1ccc(CN2c3ccccc3CCc3ccccc32)cc1F = > 100 µM

Value (TGI, LOX IMVI melanoma) for record CN1C(=O)C(Cl)(C(Cl)(Cl)S(=O)(=O)O)C(=O)c2ccccc21 (stereo unspecified) = > 100 µM

Value (TGI, LOX IMVI melanoma) for record OC12CC/C(=N/OCc3ccccc3)CC1c1ccccc12 (stereo unspecified) = > 100 µM

Value (TGI, LOX IMVI melanoma) for record COc1ccc(-c2cn[nH]c2-c2cc(OC)c3c(c2)OCCO3)cc1 = 15.2 µM

Value (TGI, LOX IMVI melanoma) for record O=C(OC[C@H]1O[C@@H](OC(=O)c2cc(O)c(O)c(O)c2)[C@H](OC(=O)c2cc(O)c(O)c(O)c2)[C@@H](OC(=O)c2cc(O)c(O)c(O)c2)[C@@H]1OC(=O)c1cc(O)c(O)c(O)c1)c1cc(O)c(O)c(O)c1 = 4.41 µM

Value (TGI, LOX IMVI melanoma) for record S=C(S)NCC1CCC(CNC(=S)S)CC1 (stereo unspecified) = 40.8 µM

Value (TGI, LOX IMVI melanoma) for record COC(=O)c1c(-c2ccccc2)sc(-c2cccc3ccccc23)c1C(=O)OC = > 100 µM

Value (TGI, LOX IMVI melanoma) for record COc1cc2c(cc1OC)-c1c3c(cc4c1[C@@H](C2)N(C)CC4)OCO3 = 75 µM

* * *

Test system: U251 CNS
One label from this list, please: yes (1) for active, no (0) for inactive

[Q] Could you kindly confirm the outcome this assay logged for CC[C@@]1(O)C(=O)OCc2c1cc1n(c2=O)Cc2cc3cc(N)ccc3nc2-1 ?
[A] yes (1)

[Q] Could you kindly confirm the outcome this assay logged for NC(=O)c1ccc(C2C3=C(CCCC3=O)OC3=C2C(=O)c2ccccc2C3=O)cc1 (stereo unspecified) ?
[A] yes (1)

[Q] Could you kindly confirm the outcome this assay logged for N#C[C@@H]1C(n2ccc(N)nc2=O)O[C@H](CO)[C@H]1O (stereo partly specified) ?
[A] no (0)

[Q] Could you kindly confirm the outcome this assay logged for COc1cc(Cn2c(-c3nonc3N)nc3ccccc32)ccc1C ?
[A] no (0)

[Q] Could you kindly confirm the outcome this assay logged for O=C([CH-]C(=O)C(F)(F)F)c1ccccc1.O=C([CH-]C(=O)C(F)(F)F)c1ccccc1.O=C([CH-]C(=O)C(F)(F)F)c1ccccc1.O=C([CH-]C(=O)C(F)(F)F)c1ccccc1.[Eu+3].c1ccncc1 ?
[A] no (0)

[Q] Could you kindly confirm the outcome this assay logged for COc1ccc(Cl)cc1Nc1nc(C(F)(F)F)ccc1C(=O)N/N=C/c1cc(OC)c(OC)c(OC)c1 ?
[A] no (0)

* * *

System: RPMI-8226 leukemia
TEST NAME: NCI tumour cell line growth inhibition, 48 h
METRIC NAME: TGI

Reported TGI of COc1ccc(C2C(C#N)=C(S)N(C3OC(CO)C(O)C(O)C3O)C(c3ccccc3)=C2C(C)=O)cc1 (stereo not drawn) : > 100 µM

Reported TGI of Cc1c(Cl)cccc1NC(=O)CC1C(=O)Nc2ccccc2S1(=O)=O (stereo not drawn) : 32.3 µM

Reported TGI of Cc1ccc(N=Nc2c(C)c(C#N)c(=S)n(C3OC(CO)C(O)C(O)C3O)c2-c2ccccc2)cc1 (stereo not drawn) : > 100 µM

Reported TGI of O=C(OC[C@H]1O[C@@H](OC(=O)c2cc(O)c(O)c(O)c2)[C@H](OC(=O)c2cc(O)c(O)c(O)c2)[C@@H](OC(=O)c2cc(O)c(O)c(O)c2)[C@@H]1OC(=O)c1cc(O)c(O)c(O)c1)c1cc(O)c(O)c(O)c1 : > 100 µM

Reported TGI of COc1cc(/C=C2/N=C(c3ccccc3)N(C3=NNC4(C(=O)N3)c3ccccc3-c3ccccc34)NC2=O)ccc1O : > 150 µg/mL

Reported TGI of CN(C)CCNc1ncnc2nc(-c3ccc4ccccc4c3)[nH]c12 : > 100 µM

Reported TGI of CSC1=NS(=O)(=O)c2cc(C(=O)NN(C)C(=O)c3cc4c(cc3Cl)SC(SC)=NS4(=O)=O)c(Cl)cc2S1 : > 10 µM

Reported TGI of COc1ccc(C(=O)N2c3ccccc3Sc3ccccc32)c(C(F)(F)F)c1 : > 100 µM
